- ASSAY COMMENT: Cmax in rat at 2.5 mg/kg, iv or 5 mg/kg, po
- Format: ADME, organism-based
- STATED CONDITIONS: in vivo
ENDPOINT LABEL: Cmax (ng/mL)
Write the number in ng/mL without appending the unit.

Query: For the compound CC1CCC(NC(=O)NS(=O)(=O)c2ccc(CCNS(=O)(=O)c3ccc(Br)cc3)cc2)CC1 (stereo unspecified) , what Cmax is on record?
Response: 3330

* * *

// Activity lookup, one value per entry
- Tested on: Adipocyte
- ASSAY COMMENT: Effect on 2-deoxy-D-[1-3H]glucose transport in Sprague-Dawley rat adipocytes at 100 uM in absence of insulin by liquid scintillation counting
- Type: functional
Write the number in disintegrations/minute without appending the unit.

[[record]]
compound = "CC(=O)Nc1ccc(S(=O)(=O)NCCc2ccc(S(=O)(=O)NC(=O)NC3CCC(C)CC3)cc2)cc1C (stereo unspecified)"
endpoint_label = "Activity"
reading = 5207.81

[[record]]
compound = "COc1ccc(NC(=S)NS(=O)(=O)c2ccc(CCNS(=O)(=O)c3ccc(C)cc3)cc2)cc1"
endpoint_label = "Activity"
reading = 4550.21

[[record]]
compound = "CC(=O)Nc1ccc(S(=O)(=O)NCCc2ccc(S(=O)(=O)NC(=O)NC3CCC(C)CC3)cc2)cc1 (stereo unspecified)"
endpoint_label = "Activity"
reading = 6736.82

[[record]]
compound = "COc1ccc(NC(=S)NS(=O)(=O)c2ccc(CCNS(=O)(=O)c3ccccc3)cc2)cc1"
endpoint_label = "Activity"
reading = 4366.76


Query: Lab request: please report Activity under test system Adipocyte for `COc1ccc(NC(=S)NS(=O)(=O)c2ccc(CCNS(=O)(=O)c3ccc(Br)cc3)cc2)cc1`
Response: 4335.26

Query: Lab request: please report Activity under test system Adipocyte for CCC1=C(C)CN(C(=O)NCCc2ccc(S(=O)(=O)NC(=O)N[C@H]3CC[C@H](C)CC3)cc2)C1=O [GLIMEPIRIDE]
Response: 11068.51

Query: Lab request: please report Activity under test system Adipocyte for COc1cc(S(=O)(=O)NCCc2ccc(S(=O)(=O)NC(=O)NC3CCC(C)CC3)cc2)ccc1NC(C)=O (stereo unspecified)
Response: 7037.78

Query: Lab request: please report Activity under test system Adipocyte for `Cc1ccc(NC(=S)NS(=O)(=O)c2ccc(CCNS(=O)(=O)c3ccccc3)cc2)cc1`
Response: 4663.52

Query: Lab request: please report Activity under test system Adipocyte for CC1CCC(NC(=O)NS(=O)(=O)c2ccc(CCNS(=O)(=O)c3ccc(Br)cc3)cc2)CC1 (stereo unspecified)
Response: 7674.84

Query: Lab request: please report Activity under test system Adipocyte for `O=C(NC1CCCCC1)NS(=O)(=O)c1ccc(CCNS(=O)(=O)c2ccc(Cl)cc2)cc1`
Response: 6632.7
